System: adult epilepsy patients
PROCEDURE TEXT: Blood chemistry before and after treatment (Example 2, safety)
Format: in vivo, human
PROTOCOL CONDITIONS: average, after treatment (before: 75.5)
Experimental: At the start of sodium bicyclo-[2.2.2]-octane-2-carboxylate protocol, all patients began receiving sodium bicyclo-[2.2.2]-octane-2-carboxylate at 100 mg four times a day. […] Main study parameters included efficiency criteria such as the number and severity of seizures, and safety criteria such as the clinical and laboratory tests. […] Physical exams and testing results were registered by a research physician in the MRs and were analyzed by statistical methods. […]
QUANTITY NAME: General Protein, After

Query string: I would be grateful if you could share the reported General Protein, After for O=C([O-])C1CC2CCC1CC2.[Na+] (stereo not shown) .
Result string: 77.4 g/L

---

System: adult epilepsy patients
PROCEDURE TEXT: Blood chemistry before and after treatment (Example 2, safety)
Type: in vivo, human
PROTOCOL CONDITIONS: average, after treatment (before: 70.5)
QUANTITY NAME: Creatinin, after (µmol/L)
Number in µmol/L, nothing else.

Query string: # query: Creatinin, after | item O=C([O-])C1CC2CCC1CC2.[Na+] (stereo not shown) | system: adult epilepsy patients
Result string: 69.4

Data credit: patent US10966944B2
